Test system: COLO 205 colon
protocol-notes: NCI tumour cell line growth inhibition, 48 h
Could you please report measured GI50 for the items listed next?

substance-smiles: Nc1nccc(-c2c(-c3ccc(F)cc3)ncn2CCCN2CCOCC2)n1
GI50: > 25 µM

# per-item lookup of GI50; items listed below
1. Cc1cc(C)cc(Nc2cc(C)nc3nc(C(F)(F)F)nn23)c1
2. COc1ccc(/C(=N/Nc2ccc([N+](=O)[O-])cc2)Sc2cc(Cl)c(C)cc2S(N)(=O)=O)cc1
3. CCOC(=O)c1c(C)n(Cc2ccc(OC)cc2)c2c1cc(O)c1[nH]c3c(c12)CCCC3

1. > 100 µM
2. 8.57 µM
3. 0.0865 µM
